Numbers sourced from ChEMBL document CHEMBL4359823.

MIC values, listed per item
system: Klebsiella pneumoniae; assay: Antibacterial activity against Klebsiella pneumoniae M6 measured after overnight incubation by microbroth dilution method; assay type: functional

Take a look at these entries with their results.
1) Cc1c(CNC2CCCCCC2)cc(-c2ccc(Cl)cc2)n1-c1ccc(F)cc1
> 128 µg/mL
2) Cc1c(CNC2CCCCCC2)cc(-c2ccc(Cl)cc2)n1-c1ccc(C(C)C)cc1
> 128 µg/mL
3) Cc1c(CNC2CCCCC2)cc(-c2ccc(Cl)cc2)n1-c1ccc(Cl)cc1Cl
> 128 µg/mL
4) Cc1c(CNC2CCC(NC(=N)N)CC2)cc(-c2ccc(Cl)cc2)n1-c1ccc(Cl)cc1 (stereo not given)
32 µg/mL
5) Cc1cc(CNC2CCCCC2)c(C)n1-c1ccc(Cl)cc1
> 64 µg/mL

Shifting focus to the compound that follows.
Could you tell me which MIC is on file for Cc1c(CNC2C3CC4CC(C3)CC2C4)cc(-c2ccc(Cl)cc2)n1-c1ccc(Cl)cc1 (stereo not given) ?
> 128 µg/mL

* * *

Some compounds, each annotated with its measured MIC.
tested on: Escherichia coli; assay: Antibacterial activity against Escherichia coli NCTC12923 measured after overnight incubation in presence of polymyxin B nonapeptide by microbroth dilution method; assay type: functional
Entry rule: numbers only, all in µg/mL.

1. Cc1c(CNC2CCCCC2)cc(-c2ccc(C(C)C)cc2)n1-c1ccc(Cl)cc1
2
2. Cc1c(CNC2CCCCCC2)cc(-c2ccc(Cl)cc2)n1-c1ccc(C(C)C)cc1
2

Okay, now this compound:
Look up MIC with Escherichia coli for this compound: Cc1c(CNC2CCC(NC(=N)N)CC2)cc(-c2ccc(Cl)cc2)n1-c1ccc(Cl)cc1 (centres undefined)
4

* * *

test system: Enterococcus faecium; test: Antibacterial activity against Enterococcus faecium NCTC12204 assessed as generation of drug resistance at 2 times MIC measured after 48 hrs by agar-based microbroth dilution method
MEASURED PARAMETER: Activity

1. Cc1c(CNC2CCCCC2)cc(-c2ccc(C(C)C)cc2)n1-c1ccc(Cl)cc1
<9.4e-08
2. Cc1c(CNC2CCCCCC2)cc(-c2ccc(Cl)cc2)n1-c1ccc(C(C)C)cc1
<9.4e-08
3. Cc1c(CNC2CCC(NC(=N)N)CC2)cc(-c2ccc(Cl)cc2)n1-c1ccc(Cl)cc1 (centres undefined)
<9.4e-08

Could you now consider this next compound?
Please state recorded Activity (tested on Enterococcus faecium) of C[C@H]1COc2c(N3CCN(C)CC3)c(F)cc3c(=O)c(C(=O)O)cn1c23.C[C@H]1COc2c(N3CCN(C)CC3)c(F)cc3c(=O)c(C(=O)O)cn1c23.O
7.08e-06

* * *

Quick reference: MIC of the listed items.
tested on: Staphylococcus aureus; assay: Antibacterial activity against methicillin-resistant Staphylococcus aureus MRSA252 measured after overnight incubation by microbroth dilution method; format: functional

1. Cc1cc(CN2CCN(C3CCCCC3)CC2)c(C)n1-c1ccc(Cl)cc1
> 128 µg/mL
2. Cc1cccc(-n2c(C)cc(CN3CCN(C4C5CC6CC(C5)CC4C6)CC3)c2C)c1 (stereo not given)
64 µg/mL
3. Cc1cc(CNCc2ccc(Cl)cc2)c(C)n1-c1ccc(Cl)cc1
32 µg/mL

Request - read-out MIC | tested on Staphylococcus aureus | compound Cc1cc(CNOCc2ccccc2)c(C)n1-c1ccc(F)cc1
> 64 µg/mL

Record lookup: for Staphylococcus aureus, what MIC belongs to Cc1cc(CNCc2ccccc2)c(C)n1-c1ccc(F)cc1 ?
64 µg/mL

* * *

test system: Klebsiella pneumoniae; assay: Antibacterial activity against Klebsiella pneumoniae M6 measured after overnight incubation by microbroth dilution method; type: functional
MEASURED PARAMETER: MIC

1) COc1ccc(-n2c(-c3ccc(Cl)cc3)cc(CNC3CCCCC3)c2C)cc1
> 128 µg/mL
2) Cc1c(CNC2CCCCC2)cc(-c2ccc(Cl)cc2)n1-c1ccc(F)cc1
> 128 µg/mL
3) Cc1c(CNC(C)c2ccccc2)cc(-c2ccc(Cl)cc2)n1-c1ccc(Cl)cc1 (centres undefined)
> 128 µg/mL
4) Cc1c(CNCc2ccccc2)cc(-c2ccc(Cl)cc2)n1-c1ccc(Cl)cc1
> 128 µg/mL
5) C[C@H]1COc2c(N3CCN(C)CC3)c(F)cc3c(=O)c(C(=O)O)cn1c23.C[C@H]1COc2c(N3CCN(C)CC3)c(F)cc3c(=O)c(C(=O)O)cn1c23.O [LEVOFLOXACIN]
0.12 µg/mL
6) Cc1c(CNC2CCCCC2)cc(-c2ccc(C(C)(C)C)cc2)n1-c1ccc(Cl)cc1
> 128 µg/mL
7) Cc1c(CNC2CCC(O)CC2)cc(-c2ccc(Cl)cc2)n1-c1ccc(Cl)cc1 (centres undefined)
> 128 µg/mL
8) Cc1cc(CNCCCCCCCCNC(=N)N)c(C)n1-c1ccc(Cl)cc1
128 µg/mL

Please turn your attention to the following entry.
May I ask what MIC has been recorded for Cc1c(CNCCCCCCCCNC(=N)N)cc(-c2ccc(Cl)cc2)n1-c1ccc(Cl)cc1 ?
16 µg/mL
